Tested on: A673/TR/shEF
Method notes: cell viability (LOESS-normalised, relative to median of negative controls) (log2 ratio); higher = more viable cells (less compound effect), active = hit call of the paper (over 3 MAD below the median)
Run parameters: 0.25 µM; library screen: screen1; EWS-FLI1 expression: high (no doxycycline); treatment time: 72 h
Out of some 3,200 compounds screened, about 300 (9.4%) showed activity. For the sample, actives were picked, then their nearest neighbours and some compounds at random.
Please go through the items and note down their cell viability (log2).
The answer should be a number; do not append a unit.

Please report the measured cell viability (log2) for CC1(C)CC2C1CCC1(CBr)CCC3C(CC(=O)O)C(=O)OC32C1 (centres undefined) tested on A673/TR/shEF.
0.146

Please report the measured cell viability (log2) for O=C(O)/C=C(/CC(=O)O)C(=O)O tested on A673/TR/shEF.
0.0822

Please report the measured cell viability (log2) for CCCCCCCCCCCCCCCC(=O)O[C@H](CC(=O)[O-])C[N+](C)(C)C tested on A673/TR/shEF.
0.194

Please report the measured cell viability (log2) for CCCCCCCCCCCCCCCCCC(=O)OC(CC(=O)O)C[N+](C)(C)C (centres undefined) tested on A673/TR/shEF.
0.12

Please report the measured cell viability (log2) for CCCCC1C(=O)N(c2ccccc2)N(c2ccccc2)C1=O tested on A673/TR/shEF.
0.128

Please report the measured cell viability (log2) for C=CCN1C(=O)/C(=C2\SC(=S)N(c3c(C)n(C)n(-c4ccccc4)c3=O)C2=O)c2ccccc21 tested on A673/TR/shEF.
-0.0187

Please report the measured cell viability (log2) for C=C[C@@H](C1=CC(=O)C(OC)=C(OC)C1=O)c1ccccc1 tested on A673/TR/shEF.
-0.165

Please report the measured cell viability (log2) for C[C@H]1C(=O)CC[C@@H]2[C@]1(C)CC[C@H]1[C@@]2(C)CC[C@@]2(C)[C@@H]3CC(C)(C)CC[C@]3(C)CC[C@]12C tested on A673/TR/shEF.
0.031

Please report the measured cell viability (log2) for CN(Cc1ccccc1)C(=O)C=Cc1ccc([N+](=O)[O-])cc1 tested on A673/TR/shEF.
0.0837

Please report the measured cell viability (log2) for C/C=C(/C)C(=O)O[C@@H]1c2c(ccc3ccc(=O)oc23)OC(C)(C)[C@@H]1OC(C)=O tested on A673/TR/shEF.
-0.0115

Please report the measured cell viability (log2) for CO[C@H]1C[C@H](O[C@@H]2/C(C)=C/C[C@@H]3C[C@@H](C[C@]4(CC[C@H](C)[C@@H](C5CCCCC5)O4)O3)OC(=O)[C@@H]3C=C(C)/C(=N/O)[C@H]4OC/C(=C\C=C\[C@@H]2C)[C@]43O)O[C@@H](C)[C@@H]1O tested on A673/TR/shEF.
0.0971

Please report the measured cell viability (log2) for C=CC(C1=CC(=O)C(OC)=CC1=O)c1ccc(OC)cc1 (centres undefined) tested on A673/TR/shEF.
0.133

Please report the measured cell viability (log2) for CC1=C(C(=O)Nc2ccccc2Cl)C(c2ccc(F)cc2)NC(=S)N1 (centres undefined) tested on A673/TR/shEF.
0.0751

Please report the measured cell viability (log2) for CC1(C)C=Cc2c(c3c(c4c(=O)c(-c5ccc(O)cc5)coc24)OC(C)(C)CC3)O1 tested on A673/TR/shEF.
0.057

Please report the measured cell viability (log2) for O=C1C(CC[S+]([O-])c2ccccc2)C(=O)N(c2ccccc2)N1c1ccccc1 (centres undefined) tested on A673/TR/shEF.
0.123

Please report the measured cell viability (log2) for CC(=O)OC1CC[C@@]2(C)C(CC[C@H]3[C@@H]4CC=C(C(C)=O)[C@@]4(C)C(=O)C[C@@H]32)C1 (some centres undefined) tested on A673/TR/shEF.
0.0289

Please report the measured cell viability (log2) for COC(=O)c1c(Cl)c(Cl)c(C(=O)OC)c(Cl)c1Cl tested on A673/TR/shEF.
0.0653

Please report the measured cell viability (log2) for O=C(O)CCCCCCCn1ccnc1 tested on A673/TR/shEF.
0.124

Please report the measured cell viability (log2) for C=C(C)C1COc2cc3oc(=O)ccc3cc2O1 (centres undefined) tested on A673/TR/shEF.
0.0489

---

Tested on: A673/TR/shEF
Method notes: cell viability (LOESS-normalised, relative to median of negative controls) (log2 ratio); higher = more viable cells (less compound effect), active = hit call of the paper (over 3 MAD below the median)
Run parameters: 0.103 µM; library screen: screen3; EWS-FLI1 expression: low (doxycycline-induced shRNA knockdown); treatment time: 72 h
Hit rate of the full screen: of about 3,200 compounds, about 300 (9.4%) showed activity. Only a selection was taken, and actives are over-represented in it overall.
Readout type: cell viability (log2)

Please give measured cell viability (log2) of the following entry: CO[C@H]1C[C@@H]2CC[C@@H](C)[C@@](O)(O2)C(=O)C(=O)N2CCCC[C@H]2C(=O)O[C@H]([C@H](C)C[C@@H]2CC[C@@H](O)[C@H](OC)C2)CC(=O)[C@H](C)/C=C(\C)[C@@H](O)[C@@H](OC)C(=O)[C@H](C)C[C@H](C)/C=C/C=C/C=C/1C
-0.644 (active)

Please give measured cell viability (log2) of the following entry: CO[C@H]1CC2CC[C@@H](C)[C@@](O)(O2)C(=O)C(=O)N2CCCC[C@H]2C(=O)O[C@H]([C@H](C)C[C@@H]2CC[C@@H](OP(C)(C)=O)[C@H](OC)C2)CC(=O)[C@H](C)/C=C(\C)[C@@H](O)[C@@H](OC)C(=O)[C@H](C)C[C@H](C)/C=C/C=C/C=C/1C
-0.714 (active)

---

Test system: A673/TR/shEF
Method notes: cell viability (LOESS-normalised, relative to median of negative controls) (log2 ratio); higher = more viable cells (less compound effect), active = hit call of the paper (over 3 MAD below the median)
Run parameters: 2.5 µM; library screen: screen2; EWS-FLI1 expression: high (no doxycycline); treatment time: 72 h
Among all 3,200 compounds or so, about 300 (9.4%) showed activity. The sample holds actives, similar compounds and a random draw of the others, so the mix is not that of the screen.
Write down the outcome that applies. Available outcomes: active, inactive

Per the records of this test, what outcome belongs to CC(C)C[C@H](N)CSSC[C@@H](N)CC(C)C ?
inactive

Per the records of this test, what outcome belongs to Cc1ccc(S(=O)(=O)/C=C/C#N)cc1 ?
active

Per the records of this test, what outcome belongs to O=c1c(O)c(-c2ccc(O)c(O)c2)oc2cc(O)cc(O)c12 ?
inactive

Per the records of this test, what outcome belongs to CC(C)(C)c1ccc(S(=O)(=O)/C=C/C#N)cc1 ?
active

Per the records of this test, what outcome belongs to CNC(=O)c1cc2c(cn1)[nH]c1ccccc12 ?
inactive

Per the records of this test, what outcome belongs to O=c1c(O)c(-c2cc(O)c(O)c(O)c2)oc2cc(O)cc(O)c12 ?
inactive

---

Tested on: A673/TR/shEF
Method notes: cell viability (LOESS-normalised, relative to median of negative controls) (log2 ratio); higher = more viable cells (less compound effect), active = hit call of the paper (over 3 MAD below the median)
Run parameters: 0.25 µM; library screen: screen1; EWS-FLI1 expression: high (no doxycycline); treatment time: 72 h
The whole screen tested about 3,200 compounds, of which about 300 (9.4%) showed activity. For the sample, actives were picked, then their nearest neighbours and some compounds at random.
Readout type: cell viability (log2)
The answer should be a number; do not append a unit.

Please give measured cell viability (log2) of the following entry: COc1cccc2c1CCC1CC(=O)CC[C@]21C (some centres undefined)
0.0982

Please give measured cell viability (log2) of the following entry: CC(=O)Oc1cc(OC(C)=O)c2c(c1)OC(c1ccc(OC(C)=O)c(OC(C)=O)c1)C(OC(C)=O)C2 (centres undefined)
0.1

Please give measured cell viability (log2) of the following entry: Cc1cc(=O)c2c(o1)-c1c(cc(O)c(O)c1C(=O)O)OC2
0.0145

Please give measured cell viability (log2) of the following entry: COc1cc([C@@H]2c3cc4c(cc3[C@@H](O[C@@H]3O[C@@H]5CO[C@@H](C)O[C@H]5[C@H](O)[C@H]3O)[C@H]3COC(=O)[C@H]23)OCO4)cc(OC)c1O
0.0215

---

Test system: A673/TR/shEF
Method notes: cell viability (LOESS-normalised, relative to median of negative controls) (log2 ratio); higher = more viable cells (less compound effect), active = hit call of the paper (over 3 MAD below the median)
Run parameters: 2.5 µM; library screen: screen1; EWS-FLI1 expression: low (doxycycline-induced shRNA knockdown); treatment time: 72 h
The campaign covered roughly 3,200 compounds. About 300 (9.4%) showed activity. This is one part of a sample in which actives are shown more often than they occur.
Write down the outcome that applies. Available outcomes: YES for active, NO for inactive

Per the records of this test, what outcome belongs to COc1cc2ccc(=O)oc2c(OC)c1OC ?
NO

Per the records of this test, what outcome belongs to CCOc1cccc(=O)c2c(C)[nH]c(C)c12 ?
NO

Per the records of this test, what outcome belongs to C=CC(C)(C)c1c2c(c(O)c3c(=O)c4ccc(O)c(O)c4oc13)C=CC(C)(C)O2 ?
NO

Per the records of this test, what outcome belongs to CCOc1ccccc1N1C(=O)c2cccc3cccc(c23)C1=O ?
NO

Per the records of this test, what outcome belongs to NCCCCC(N)C(=O)NC(Cc1c[nH]c2ccccc12)C(=O)NC(CCCCN)C(=O)O (stereo not given) ?
NO

Per the records of this test, what outcome belongs to COCCOC(=O)C1=C(C)NC(=S)NC1c1ccccc1 (stereo not given) ?
NO

Per the records of this test, what outcome belongs to CC1(C)C2CC(=O)[C@]3(C)C(CC[C@@]4(C)[C@H](C(=O)O)OC(=O)C5OC543)[C@@]2(C)[C@@H](O)C[C@H]1O (stereo not given in full) ?
NO

Per the records of this test, what outcome belongs to CSc1nnc(-c2ccccc2)c(-c2ccccc2)n1 ?
NO

Per the records of this test, what outcome belongs to Cc1cn([C@H]2C[C@H](N=[N+]=[N-])[C@@H](CO)O2)c(=O)[nH]c1=O ?
YES

Per the records of this test, what outcome belongs to O=c1[nH]c(=O)n([C@H]2C[C@H](O)[C@@H](CO)O2)cc1F ?
NO
